# test.details: qHTS assay to identify small molecule agonists of the vitamin D receptor (VDR) signaling pathway - cell viability counter screen (AID 743224); also: nearly all actives have a fitted effect of over 50% in size
# cond: VDR-bla HEK293T viability, CellTiter-Glo luminescence, 16 h; series mostly up to 62.6 µM
Records with an inconclusive call do not appear. Calls of active or inactive are those of the source. Calls follow the shape of the dose curve; as a rule, active = well fitted cell-killing curve with a large enough effect in the repeat runs; inconclusive = weak or mixed curves, or effect the other way; inactive = no such curve, though single readings can be large or run the other way.
Give your call using only these classes: active, inactive

1) CN1CCCN=C1/C=C/c1cccs1 = inactive
2) CCC(C)=O = inactive
3) C/C=C/C=C/CCCCCCCO = inactive
4) CC1=CC(O)CC(C)(C)C1 (stereo not drawn) = inactive
5) CC(Cl)C(Cl)Cl (stereo not drawn) = inactive

Q: Assay outcome for Cc1nc2ccccc2s1 : what was it?
Result: inactive

Q: Assay outcome for COc1cc2[nH]c(=O)[nH]c(=O)c2cc1OC : what was it?
Result: inactive

Q: Assay outcome for CC(C)(C)CC(C)(C)c1ccc(OCCO)cc1 : what was it?
Result: active

----------
# test.details: qHTS assay to identify small molecule agonists of the endoplasmic reticulum stress response signaling pathway - cell viability counter screen (AID 1159517);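 also: HeLa cells carrying an ER stress response element beta-lactamase reporter; % is scaled to controls: 0 for no effect and ±100 for the full control effect; nearly all actives have a fitted effect of over 50% in size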
# cond: ESRE-bla HeLa viability, CellTiter-Glo luminescence, 5 h; series mostly up to 61 µM
Results filed as inconclusive are left out. Calls of active or inactive are those of the source. The call rests on the fitted dose curve.
endpoint.label: activity change, negative = cytotoxicity

1) OCCSc1ccccc1 = inactive
2) CCCCC(=O)O[C@]1(C(=O)CO)CC[C@H]2[C@@H]3CCC4=CC(=O)CC[C@]4(C)[C@H]3[C@@H](O)C[C@@]21C = inactive
3) O=C(CCCN1CCC(O)(c2ccc(Br)cc2)CC1)c1ccc(F)cc1 = inactive
4) CCOCCn1c(C2CCN(CCc3ccc(C(C)(C)C(=O)O)cc3)CC2)nc2ccccc21 = inactive
5) CC[C@H](NC(=O)c1cc(F)ccc1NS(=O)(=O)c1cccc2cccnc12)c1ccccc1 = inactive
6) C=CC(C)(O)CCCC(C)CCCC(C)CCCC(C)C (configuration not stated) = inactive

Q: Fill in: activity change, negative = cytotoxicity of Cn1c(=O)c2c(ncn2CC(=O)O)n(C)c1=O is ___
Result: inactive

Q: Fill in: activity change, negative = cytotoxicity of CC(=O)[C@H]1CC[C@H]2[C@@H]3C[C@H](C)C4=CC(=O)CC[C@]4(C)[C@H]3[C@@H](O)C[C@]12C is ___
Result: inactive

Q: Fill in: activity change, negative = cytotoxicity of OCC1CC=CCC1 (configuration not stated) is ___
Result: inactive

----------
# assay.system: Cytochrome P450 1A2 (Homo sapiens) (UniProt P05177)
# Sequence (P05177 whole entry, looked up): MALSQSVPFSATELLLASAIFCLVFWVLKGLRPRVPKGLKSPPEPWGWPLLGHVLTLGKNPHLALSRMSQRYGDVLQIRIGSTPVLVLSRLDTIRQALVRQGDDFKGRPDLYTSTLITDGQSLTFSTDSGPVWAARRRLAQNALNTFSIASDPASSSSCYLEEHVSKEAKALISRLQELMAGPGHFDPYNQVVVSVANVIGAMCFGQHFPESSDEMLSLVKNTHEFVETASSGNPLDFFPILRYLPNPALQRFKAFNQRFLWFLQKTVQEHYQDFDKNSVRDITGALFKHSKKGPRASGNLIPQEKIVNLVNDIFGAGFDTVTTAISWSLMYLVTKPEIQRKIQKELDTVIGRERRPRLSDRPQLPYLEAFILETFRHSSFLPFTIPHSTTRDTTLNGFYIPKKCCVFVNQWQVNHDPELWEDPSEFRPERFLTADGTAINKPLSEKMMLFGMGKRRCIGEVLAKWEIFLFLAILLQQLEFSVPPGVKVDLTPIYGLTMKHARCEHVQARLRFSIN
# test.details: Cytochrome P450 Family 1 Subfamily A Member 2 (CYP1A2) small molecule antagonists: luciferase reporter qHTS assay (AID 1671199); also: nearly all actives have a fitted effect of over 50% in size; also: potency is read from the fitted curve at half-maximal effect
# cond: P450-Glo CYP1A2 enzyme, luciferin luminescence, 1 h; series mostly up to 53 µM
Results filed as inconclusive are left out. Calls of active or inactive are those of the source. The call rests on the fitted dose curve; in most records, active means well fitted inhibition curve with a large enough effect in the repeat runs; inconclusive means weak or mixed curves; inactive means no such curve, though single readings can be large or run the other way.
endpoint.label: Potency

For orientation, consider the following solved cases.
1) CO/N=C1\CN(c2nc3c(cc2F)c(=O)c(C(=O)O)cn3C2CC2)CC1CN (stereo unspecified) = inactive
2) NC(=O)N(O)[C@@H]1C=C[C@H](Oc2cccc(Oc3ccc(F)cc3)c2)C1 = 7.96 µM (active)
3) CO[C@H]1O[C@H](CO)[C@@H](O)[C@H](O)[C@H]1O = inactive
4) CCC(Cc1ccccc1)(C(=O)c1ccc(N2CCOCC2)cc1)N(C)C (stereo unspecified) = inactive
5) C[Si]1(C)O[Si](C)(C)O[Si](C)(C)O1 = inactive

Q: Fill in: Potency of CCOC(=O)OCC is ___
Result: 41.5 µM (active)

----------
# test.details: qHTS assay to identify small molecule agonists of the endoplasmic reticulum stress response signaling pathway - cell viability counter screen (AID 1159517);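 also: HeLa cells carrying an ER stress response element beta-lactamase reporter; % is scaled to controls: 0 for no effect and ±100 for the full control effect; nearly all actives have a fitted effect of over 50% in size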
# cond: ESRE-bla HeLa viability, CellTiter-Glo luminescence, 5 h; series mostly up to 61 µM
Records with an inconclusive call do not appear. The source made the active and inactive calls. The call rests on the fitted dose curve.
endpoint.label: activity change, negative = cytotoxicity

1) CC(Cl)C(Cl)Cl (centres undefined) = inactive
2) COCC(O)CO (centres undefined) = inactive
3) C/C=C/C=C/CCCCCCCO = inactive
4) CCC1(C)CC(=O)NC1=O (centres undefined) = inactive
5) NC(=O)N(O)[C@@H]1C=C[C@H](Oc2cccc(Oc3ccc(F)cc3)c2)C1 = inactive
6) CC(C)C(=O)O = inactive

Q: Fill in: activity change, negative = cytotoxicity of O=C(N/N=C/c1ccc([N+](=O)[O-])o1)c1ccc(O)cc1 is ___
Result: inactive

Q: Fill in: activity change, negative = cytotoxicity of COc1cc2c(N3CCN(C(=O)Nc4ccc(OC(C)C)cc4)CC3)ncnc2cc1OCCCN1CCCCC1 is ___
Result: inactive

Q: Fill in: activity change, negative = cytotoxicity of CN1C(=O)CC(C)(c2ccccc2)C1=O (centres undefined) is ___
Result: inactive

Q: Fill in: activity change, negative = cytotoxicity of CC(C)(C)CC(C)(C)c1ccc(OCCO)cc1 is ___
Result: inactive

Q: Fill in: activity change, negative = cytotoxicity of CCC(C(=O)OCCN(CC)CC)c1ccccc1 (centres undefined) is ___
Result: inactive

Q: Fill in: activity change, negative = cytotoxicity of COCCOC is ___
Result: inactive

Q: Fill in: activity change, negative = cytotoxicity of Cc1cc(O)c2c(O)c3c(O)cccc3cc2c1 is ___
Result: inactive

Q: Fill in: activity change, negative = cytotoxicity of COc1ccc(C(=O)c2cccc(O)c2)c(OC)c1 is ___
Result: inactive

----------
# test.details: qHTS assay to identify small molecule agonists of the hypoxia (HIF-1) signaling pathway - cell viability counter screen (AID 1224844)
# cond: HRE-bla ME-180 viability, CellTiter-Glo luminescence, 17 h; series mostly up to 76.8 µM
Records with an inconclusive call do not appear. Active and inactive are the calls of the source. Calls come from the whole dose curve.
endpoint.label: activity change, negative = cytotoxicity

For orientation, consider the following solved cases.
1. [O]=[Bi] = 28.4% [at 6.97 µM] (inactive)
2. CCCC(=O)O[C@]1(C(=O)COC(=O)CC)CC[C@H]2[C@@H]3CCC4=CC(=O)CC[C@]4(C)[C@H]3[C@@H](O)C[C@@]21C = -1.64% [at 15.8 µM] (inactive)
3. C=CCCCCCCCCCCCCCCCC = 3.26% [at 6.97 µM] (inactive)

Q: Fill in: activity change, negative = cytotoxicity of CC1CN(c2cc3c(cc2F)c(=O)c(C(=O)O)cn3-c2ccc(F)cc2F)CCN1 (centres undefined) is ___
Result: 5.19% [at 6.97 µM] (inactive)

----------
# test.details: qHTS assay to identify small molecule antagonists of the progesterone receptor (PR) signaling pathway - cell viability counter screen (AID 1346798)
# cond: PR-UAS-bla HEK293T viability, CellTiter-Glo luminescence, 16 h; series mostly up to 92.4 µM
Results filed as inconclusive are left out. Calls of active or inactive are those of the source. The call rests on the fitted dose curve; in most records, active means well fitted cell-killing curve with a large enough effect in the repeat runs; inconclusive means weak or mixed curves, or effect the other way; inactive means no such curve, though single readings can be large or run the other way.
endpoint.label: activity change, negative = cytotoxicity

1) CCCCCCCCCCCCCCCCBr = 0.653% [at 18.9 µM] (inactive)
2) CC1CN(c2cc3c(cc2F)c(=O)c(C(=O)O)cn3-c2ccc(F)cc2F)CCN1 (centres undefined) = 0.324% [at 8.39 µM] (inactive)
3) CCCC(=O)O[C@]1(C(=O)COC(=O)CC)CC[C@H]2[C@@H]3CCC4=CC(=O)CC[C@]4(C)[C@H]3[C@@H](O)C[C@@]21C = -3.5% [at 18.9 µM] (inactive)

// next entry
Q: Fill in: activity change, negative = cytotoxicity of C=CCCCCCCCCCCCCCCCC is ___
Result: 4.23% [at 8.39 µM] (inactive)

----------
# assay.system: Peroxisome proliferator-activated receptor gamma (Homo sapiens)
# test.details: qHTS assay to identify small molecule antagonists of the peroxisome proliferator-activated receptor gamma (PPARg) signaling pathway (AID 743191); also: nearly all actives have a fitted effect of over 30% in size
# cond: HEK293H PPARg-UAS-bla, beta-lactamase ratio, antagonist, 17 h; series mostly up to 62.6 µM
Inconclusive results are not listed. Activity calls are given as the source filed them. Calls follow the shape of the full dose curve.
Give your call using only these classes: True = active, False = inactive

Previously resolved entries follow.
1) COC(OC)(C(=O)c1ccccc1)c1ccccc1 = False
2) CCCCN(CCCC)C(=S)SSC(=S)N(CCCC)CCCC = True
3) CC(COc1ccc(C(C)(C)C)cc1)OS(=O)OCCCl (configuration not stated) = False
4) CC1=C(/C=C/C(C)=C\C=C\C(C)=C\C(=O)O)C(C)(C)CCC1 = False
5) O=C(CCC1CCN(Cc2ccccc2)CC1)c1ccc2c(c1)NCCCC2 = False

Q: Assay outcome for O=C(Nc1ccc([N+](=O)[O-])cc1)Nc1ccc([N+](=O)[O-])cc1 : what was it?
Result: False

Q: Assay outcome for CCCCCCCCCCCCCCC[C@H](O)[C@@H](N)CO : what was it?
Result: False

Q: Assay outcome for Oc1cc(O)c(Cl)cc1Cl : what was it?
Result: False

Q: Assay outcome for Cn1c(=O)c2c(ncn2CC(=O)O)n(C)c1=O : what was it?
Result: False

Q: Assay outcome for COc1cc2c(N3CCN(C(=O)Nc4ccc(OC(C)C)cc4)CC3)ncnc2cc1OCCCN1CCCCC1 : what was it?
Result: False

Q: Assay outcome for CNC(=S)NC : what was it?
Result: False

Q: Assay outcome for COCC(O)CO (configuration not stated) : what was it?
Result: False
